# measurement.description: NCI Yeast Anticancer Drug Screen. Data for the sgs1 mgt1 strain (AID 161);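 further: 0% = growth of cultures given vehicle only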
# experimental.conditions: S. cerevisiae sgs1 mgt1 strain, at 50.0 µM, stronger effect = higher value
The panel holds about 79,000 compounds, 15% with a hit somewhere; the sample as a whole holds those more often.
reported.metric: growth inhibition (%)
Answer in %, number only, no unit symbol.

Prompt: Requested read-out: growth inhibition. Entry: COc1ccc(C(=O)c2ccc([N+](=O)[O-])cc2)cc1
Response: -3.8

Prompt: Same lookup for COc1c(OC)c(C2(O)C(=O)N(C)c3ccccc32)c(OC)c(OC)c1C1(O)C(=O)N(C)c2ccccc21 (stereo not given) , please.
Response: -4.9

Prompt: Same lookup for NC(=O)c1ccccc1C(=O)O , please.
Response: -36.1

Prompt: Same lookup for Cc1ccccc1NC(=S)N/N=C(/c1ccccc1)c1ccccn1 , please.
Response: 69.7

Prompt: Same lookup for CCCCCCCC/C=C\CCCCCCCC(=O)O (tested in a mixture with another compound) , please.
Response: 89.7

Prompt: Same lookup for CC(C)=CN(C)C (tested in a mixture with another compound) , please.
Response: 91.7

Prompt: Same lookup for O=S(=O)(Nc1ccccn1)c1ccc(N=Cc2c3ccccc3nc3cc(Cl)ccc23)cc1 , please.
Response: 99.2

Prompt: Same lookup for CC(=O)OCCc1ccc(CCc2ccccc2)cc1 , please.
Response: 18.6

Prompt: Same lookup for CCCCCCOC(=O)CCC(=O)OCCCCCC , please.
Response: 23.5

Prompt: Same lookup for CCCCCCC1CCC(CCCCCCCC(=O)N2CCN(C)CC2)C(C/C=C/CCCCCCCC(=O)N2CCN(C)CC2)C1CCCCC (stereo not given) , please.
Response: 99.3

The measured values listed here are drawn from PubChem BioAssay (NCI).
